These data points were gathered from patent US10570121B2.

- target or test system: EZH2 Mutant Y641N (Homo sapiens (Human), UniProt Q15910, Y641N)
- Sequence (Q15910 whole entry Y641N, looked up): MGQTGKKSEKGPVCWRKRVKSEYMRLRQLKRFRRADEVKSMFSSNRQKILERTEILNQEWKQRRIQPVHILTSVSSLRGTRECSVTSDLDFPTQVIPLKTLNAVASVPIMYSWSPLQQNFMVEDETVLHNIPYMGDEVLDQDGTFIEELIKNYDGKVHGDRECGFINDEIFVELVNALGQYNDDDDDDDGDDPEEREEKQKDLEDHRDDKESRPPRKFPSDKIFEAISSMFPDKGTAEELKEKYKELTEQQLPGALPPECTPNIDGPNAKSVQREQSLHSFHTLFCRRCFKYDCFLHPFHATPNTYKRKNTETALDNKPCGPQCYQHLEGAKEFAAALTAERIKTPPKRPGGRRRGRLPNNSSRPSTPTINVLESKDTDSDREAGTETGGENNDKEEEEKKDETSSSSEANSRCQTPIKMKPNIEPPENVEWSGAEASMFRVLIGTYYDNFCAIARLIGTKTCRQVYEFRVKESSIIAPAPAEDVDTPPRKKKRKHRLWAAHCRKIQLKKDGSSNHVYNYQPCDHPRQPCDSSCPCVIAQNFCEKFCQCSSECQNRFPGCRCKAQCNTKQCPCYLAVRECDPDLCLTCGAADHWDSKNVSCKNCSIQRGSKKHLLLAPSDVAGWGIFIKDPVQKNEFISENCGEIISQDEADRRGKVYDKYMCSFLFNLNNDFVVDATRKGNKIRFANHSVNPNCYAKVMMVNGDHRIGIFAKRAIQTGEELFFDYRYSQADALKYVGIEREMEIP
- Sequence (O75530 whole entry partner, looked up): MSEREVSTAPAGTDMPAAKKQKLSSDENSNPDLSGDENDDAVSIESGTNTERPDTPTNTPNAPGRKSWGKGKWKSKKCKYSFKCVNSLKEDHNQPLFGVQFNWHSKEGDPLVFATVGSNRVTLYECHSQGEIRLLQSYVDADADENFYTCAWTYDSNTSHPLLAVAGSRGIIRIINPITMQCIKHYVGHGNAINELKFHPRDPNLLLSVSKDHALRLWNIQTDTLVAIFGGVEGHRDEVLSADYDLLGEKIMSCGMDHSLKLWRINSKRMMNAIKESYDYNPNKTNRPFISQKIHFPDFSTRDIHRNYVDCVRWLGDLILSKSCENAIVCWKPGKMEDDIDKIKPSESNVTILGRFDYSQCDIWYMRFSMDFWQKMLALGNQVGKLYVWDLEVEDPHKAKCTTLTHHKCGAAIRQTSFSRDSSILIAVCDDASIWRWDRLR
- Sequence (Q15022 whole entry partner, looked up): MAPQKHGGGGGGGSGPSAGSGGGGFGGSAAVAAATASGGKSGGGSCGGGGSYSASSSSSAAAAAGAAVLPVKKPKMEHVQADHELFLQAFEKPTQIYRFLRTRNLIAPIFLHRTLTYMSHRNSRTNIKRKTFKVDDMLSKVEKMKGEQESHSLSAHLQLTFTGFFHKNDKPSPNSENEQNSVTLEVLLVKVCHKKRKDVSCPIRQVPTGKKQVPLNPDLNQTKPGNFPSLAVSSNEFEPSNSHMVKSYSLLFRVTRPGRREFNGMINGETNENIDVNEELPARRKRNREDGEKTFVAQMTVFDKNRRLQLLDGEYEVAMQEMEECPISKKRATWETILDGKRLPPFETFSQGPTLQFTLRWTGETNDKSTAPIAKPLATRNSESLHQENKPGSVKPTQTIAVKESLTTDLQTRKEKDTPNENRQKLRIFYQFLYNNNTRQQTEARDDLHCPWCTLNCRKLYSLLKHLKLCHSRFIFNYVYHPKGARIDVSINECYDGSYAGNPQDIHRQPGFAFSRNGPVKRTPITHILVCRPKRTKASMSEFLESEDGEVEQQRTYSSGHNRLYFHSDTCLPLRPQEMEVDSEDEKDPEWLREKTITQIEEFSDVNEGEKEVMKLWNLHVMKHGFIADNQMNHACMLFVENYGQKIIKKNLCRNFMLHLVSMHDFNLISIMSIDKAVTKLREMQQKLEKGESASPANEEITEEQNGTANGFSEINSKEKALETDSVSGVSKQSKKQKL
- Sequence (Q09028 whole entry partner, looked up): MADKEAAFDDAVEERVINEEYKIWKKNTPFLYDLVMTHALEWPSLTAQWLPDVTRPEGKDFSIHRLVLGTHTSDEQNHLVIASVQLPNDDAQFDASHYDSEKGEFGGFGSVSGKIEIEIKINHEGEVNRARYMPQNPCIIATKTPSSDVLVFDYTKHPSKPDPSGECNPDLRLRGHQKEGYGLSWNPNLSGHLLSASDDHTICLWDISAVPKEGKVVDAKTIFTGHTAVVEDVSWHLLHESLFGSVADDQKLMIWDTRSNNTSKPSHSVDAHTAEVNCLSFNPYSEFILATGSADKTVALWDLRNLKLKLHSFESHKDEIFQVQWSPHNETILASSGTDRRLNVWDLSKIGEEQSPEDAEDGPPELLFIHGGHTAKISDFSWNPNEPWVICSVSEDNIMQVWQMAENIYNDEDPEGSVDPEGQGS
- assay: EZH2 Mutant Y641N nucleosome assay
- Assay type: biochemical
- experimental conditions: EZH2 Mutant Y641N Nucleosome assay IC50 (μM), PRC2 4-protein complex 6 nM, 1.5 μM SAM, HeLa oligonucleosomes
- Procedure: The genes for EZH2, EED, SUZ12, and RBBP4 proteins were cloned into pBacPAK9 vectors (Clontech). RBBP4 was FLAG tagged on the N-terminal end. The baculovirus expressions of these proteins were used to co-infect SF9 insect cells. […] D. Data analysis • 1. IC50 values were determined by fitting the data to a 4-parameter IC50 equation using proprietary curve fitting software. • 2. […]
Label class 1 when IC50 is strictly below 2 µM; otherwise label class 0.

compound	classification
CCC(CO)c1cc(Cl)c2c(c1Cl)C(=O)N(Cc1c(C)cc(C)[nH]c1=O)CC2 (single isomer, unassigned) [Example 30]	class 1
COc1cc(C)[nH]c(=O)c1CN1CCc2c(Cl)cc(C(OC)C3CCOC3)c(Cl)c2C1=O (single isomer, unassigned) [Example 125]	class 1
CCOC(c1cc(Cl)c2c(c1Cl)C(=O)N(Cc1c(C)cc(C)[nH]c1=O)CC2)C1CS(=O)(=O)C1 (single isomer, unassigned)	class 0
COC(c1cc(Cl)c2c(c1Cl)C(=O)N(Cc1c(C)cc(C)[nH]c1=O)CC2)C1CCN(C2COC2)CC1 (single isomer, unassigned)	class 1
COC(c1cc(Cl)c2c(c1Cl)C(=O)N(Cc1c(C)cc(C)[nH]c1=O)CC2)C1CCOC1 (single isomer, unassigned) [Example 160]	class 1
CCC(O)c1cc(Cl)c2c(c1Cl)C(=O)N(Cc1c(C)cc(C)[nH]c1=O)CC2 (single isomer, unassigned) [Example 28]	class 1
COC(c1cc(Cl)c2c(c1Cl)C(=O)N(Cc1c(C)cc(C)[nH]c1=O)CC2)C1CCOC1 (single isomer, unassigned) [Example 162]	class 0
COc1cc(C)[nH]c(=O)c1CN1CCc2c(Cl)cc(C(OC)C3CCOC3)c(Cl)c2C1=O (single isomer, unassigned) [Example 126]	class 1
CCC(OC)c1cc(Cl)c2c(c1Cl)C(=O)N(Cc1c(C)cc(C)[nH]c1=O)CC2 (single isomer, unassigned) [Example 16]	class 1
[2H]C([2H])([2H])OC(c1cc(Cl)c2c(c1Cl)C(=O)N(Cc1c(C)cc(C)[nH]c1=O)CC2)C1CCN(C(=O)CO)CC1 (racemic) [Example 70]	class 1
CCC(O)c1cc(Cl)c2c(c1Cl)C(=O)N(Cc1c(C)cc(C)[nH]c1=O)CC2 (racemic) [Example 25]	class 1
